System: MS2 coat protein
Experiment: apparent Kd, MS2 coat protein; higher = weaker binding; RNA-MaP array; FMN 200 µM where present
Conditions: designed as: OFF switch for flavin mononucleotide; no ligand
Readout Type: apparent Kd
Field: value (include unit after the number)

Below, 8 sequences whose answers are already recorded.
Seq String	apparent Kd
AAUAACAGAGGAUAUACUGUUUUAUGUGUUUGUUAUUUUGAACAUGAGGAUCACCCAUGUAGAAGGCUGAAUAA	24.6 nM
GUGGUACAUGAGGAUCACCCAUGUUAGGAUAUCGCGUGAGGUAAAACUUACACACACACGAGAAGGGACGUCUU	45.9 nM
UUUUAACAUGAGGAUCACCCAUGUGAGGAUAUCGAUAUUUAUAUUAAUAUUAAUAAAACGAGAAGGCACAUUUU	71 nM
UCCGCUCGAGGAUAUACAUGAGGAUCACCCAUGUUUCCCUGUUGCUUGGCCUCAGGAUGUAGAAGGCGACGCUA	17.6 nM
AAAUGCCUGUCGAUGCUCGACAUGAGGAUCACCCAUGUAUAGCAGGAUAUGCAGAACUGACUCGUGCAGAAGGGCUAUACCUAA	38.2 nM
UUUACGUGAGGAUAUGCGAAUAGAACGUAAGACAUACAGACGCAGAAGGCACAUGAGGAUCACCCAUGUGAACC	20.5 nM
UGUAUGUGGGCAGGAUAUACAUGAAUAUAUAUGAUGUAGUAUGAUGUAACAUGAGGAUCACCCAUGUAGAAGGGCCGGUGUAUG	165 nM
CCUGUGUGAGGAUAUGGUGUUGGCCAAAAGGAAUAGCUCCUCCAGAAGGCACAUGAGGAUCACCCAUGUCGUGG	18 nM

response.value for UUUUAACAGUCAGGAUAUGUAACGCACAACGGCGCAGAAGGGACAUGAGGAUCACCCAUGUUAUGGUUCUGGUACUAUGACGUU (field: apparent Kd) = 18.8 nM

###

System: MS2 coat protein
Assay: apparent Kd, MS2 coat protein; higher = weaker binding; RNA-MaP array; FMN 200 µM where present
Settings: designed as: ON switch for flavin mononucleotide; no ligand
Readout Type: apparent Kd

Seq String	Readout Type	Result
GGUACCAACACAGGAUAUGCUAUCCUUUGGGUAGCAGAAGGGUGAAACAUGAGGAUCACCCAUGUGGUGCCACCCGGUGACGGG	apparent Kd	1180 nM
UGUUGUAUUACAGGAUAUCUAGUAUUUUUAUUCAGAGAAGGGUAUUCACAUGAGGAUCACCCAUGUAUAUACGAGGAAGUUGUG	apparent Kd	45.2 nM
UGCGUACAAGCAGACAUGAGGAUCACCCAUGUAGUCUUAUGCGAGGAUAUCGGGAAGGAGGAUUCCGAGAAGGUGCGGUGAGCC	apparent Kd	25.4 nM
AACAAUCUAUCUGAGGAUAUCAUGUCAAAGACAUGAGGAUCACCCAUGUUGCAGGAAACUGCUCAUGAGAAGGCAGAUAGAUUGA	apparent Kd	614 nM
CCGGAAACGGGUAGCUGACAUGAGGAUCACCCAUGUGAAACACAGGAUAUGGAUCCUAAUUGGAUCCAGAAGGGUGUCAGCUAC	apparent Kd	247 nM
UGAAUCAAUACAGGAUAUGGUGACGCACAUGAGGAUCACCCAUGUCCGCAGCGUGCUAAGCACGCCCAGAAGGGUAUUGAUCUG	apparent Kd	1010 nM
GCGCUUAUACAGAAGGCCAUAUACAUGAGGAUCACCCAUGUUACAUGGUGGAGGAUAUGUUAUUUAUUACAGGUAGAUGAGCGC	apparent Kd	4.71 nM
GGGUACAUCGGAGGAUAUCAUGUGUAAACAUGAGGAUCACCCAUGUCGUACGAGAGUACGGAGAUUGAGAAGGCCGAUGUACCG	apparent Kd	86.7 nM

response.value for AUGGUUGUCGUAGGAUAUGUAGGAUAUUCCUACAUGAGGAUCACCCAUGUUCGCAUGGAAGAAGGACAGAAGGACGAUGACCAG (field: apparent Kd) = 1020 nM

response.value for GUGCCUUGGGAGAAGGCCCAAUGCAAAGCAUCGGGAGGAUAUUCAUAUAAUAAAUAAACAUGAGGAUCACCCAUGUGGCACAAA (field: apparent Kd) = 447 nM

response.value for GAAGAACAUGAGGAUCACCCAUGUGAUUCGCAUGUAGGAUAUGGGCACGCGCCCGCGUGUCUAGAAGGACAGGCUA (field: apparent Kd) = 69.3 nM

response.value for CUACCUUAUGAGAAGGCGAUCAUGAAACAUGAUCGAGGAUAUCAUGUAAACAUGAGGAUCACCCAUGUAUGGGUAUUAUGGUAU (field: apparent Kd) = 91.5 nM

response.value for GGAAUAUUUACAGGAUAUCAUUUGUAAAUUCGAUGAGAAGGGUAGAUGUCUUACACGACUUGUUACAUGAGGAUCACCCAUGUU (field: apparent Kd) = 43.3 nM

response.value for GCCAUCGCAUGAGGAUAUGGUCAGCUUUGCUGACCAGAAGGCAUGUCAUAAGACAUGAGGAUCACCCAUGUAGUUAAGAUGGCA (field: apparent Kd) = 778 nM
